- TESTED ON: LNX1_1, Q8TBB1
- Sequence (Q8TBB1 261-371): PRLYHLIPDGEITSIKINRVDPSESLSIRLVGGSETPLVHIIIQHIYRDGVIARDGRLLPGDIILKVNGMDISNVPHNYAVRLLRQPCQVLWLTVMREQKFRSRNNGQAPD
- TEST DESCRIPTION: holdup assay
- Design: key: below the threshold = too weak to quantify, mostly under pKd 3.1 to 4
- CONDITION PARAMETERS: plain residues with an end cap or a label only (N-terminal biotin on a linker: ahx)
RECORDED ENDPOINT: pKd

BINDER: RRRKRKRTYL [HPV49-L2, P36762]
RESULT: 3.63

BINDER: PSASCAVTAA [PDLIM4, P50479;P50479-2]
RESULT: below the threshold

BINDER: RAVEEEESRF [PSCDBP, O60759]
RESULT: below the threshold

BINDER: LSDPSVSTVV [GRIN1, Q05586;Q05586-2]
RESULT: 4.17

BINDER: ESLLLGPSNF [SHROOM4, Q9ULL8]
RESULT: below the threshold

BINDER: NRKREIFSNF [NHERF2, Q15599]
RESULT: below the threshold
